experiment: Solubility in ethyl acetate solution; format: physicochemical
outcome-measure: Solubility (g)
Value expressed in g; do not type the unit.

In: Kindly indicate its recorded Solubility. Item: CCCCCCCCCCCCCCCCCC(=O)NCCO [N-(2-HYDROXYETHYL)STEARAMIDE]
Out: 0.03

In: Kindly indicate its recorded Solubility. Item: CCCCCCCCCCCC(=O)NCCO
Out: 0.38

In: Kindly indicate its recorded Solubility. Item: CCCCCCCCCCCCCCCCCC(=O)NCCOC(=O)COc1ccccc1C
Out: 8.27

In: Kindly indicate its recorded Solubility. Item: CCCCCCCCCCCC(=O)NCCOC(=O)COc1ccc(Cl)cc1Cl
Out: 11

In: Kindly indicate its recorded Solubility. Item: CCCCCCCCCCCCCCCCCC(=O)NCCOC(=O)COc1ccc(Cl)cc1
Out: 1.54

In: Kindly indicate its recorded Solubility. Item: CCCCCCCCCCCCCCCCCC(=O)NCCOC(=O)COc1ccc(Cl)cc1Cl
Out: 3.54

In: Kindly indicate its recorded Solubility. Item: CCCCCCCCCCCCCCCCCC(=O)NCCOC(=O)COc1cccc(OC)c1
Out: 2.67

Recorded values, source ChEMBL document CHEMBL1139901.
